Documented CRE across a set of compounds
# Organism: Rattus norvegicus
# assay notes: Open TG-GATES - Regimen: Daily Repeat
# Type: toxicity, organism-based, Sprague-Dawley
# Parameters: regimen Daily Repeat, gender Male, age 6 weeks
# conditions: in vivo, po, 0 mg/kg, 72 h, tissue Plasma, route gavage, dose level Control, time 3 day
quantity kind: CRE (mg/dL)

| compound | quantity kind | units symbol | observed |
| --- | --- | --- | --- |
| COC1=CC(=O)C[C@@H](C)[C@]12Oc1c(Cl)c(OC)cc(OC)c1C2=O | CRE | mg/dL | 0.4 |
| CC(C)OC(=O)C(C)(C)Oc1ccc(C(=O)c2ccc(Cl)cc2)cc1 [FENOFIBRATE] | CRE | mg/dL | 0.2 |
| CCOC(=O)CCC(=O)O[C@H]1[C@H](O[C@@H]2[C@@H](C)[C@H](O[C@H]3C[C@@](C)(OC)[C@@H](O)[C@H](C)O3)[C@@H](C)C(=O)O[C@H](CC)[C@@](C)(O)[C@H](O)[C@@H](C)C(=O)[C@H](C)C[C@@]2(C)O)O[C@H](C)C[C@@H]1N(C)C [ERYTHROMYCIN ETHYLSUCCINATE] | CRE | mg/dL | 0.2 |
| COc1ccc2[nH]c([S+]([O-])Cc3ncc(C)c(OC)c3C)nc2c1 (stereo not given) | CRE | mg/dL | 0.4 |
| CCOc1ccc(NC(=O)CC(C)O)cc1 (stereo not given) | CRE | mg/dL | 0.2 |
